# System: NCI-H226 lung
# METHOD DESCRIPTION: NCI tumour cell line growth inhibition, 48 h
REPORTED ENDPOINT: TGI

Sample answers from the record:
>  <COMPOUND>
O=S1(=O)OC(c2ccc(O)cc2)(c2ccc(O)cc2)c2ccccc21

>  <ASSAY SYSTEM>
NCI-H226 lung

>  <VALUE MEASURED>
> 100 µM

$$$$
>  <COMPOUND>
COc1cc2ccc3c4c(OC)cc(OC)c(OC)c4c(=O)n(C)c3c2cc1OC

>  <ASSAY SYSTEM>
NCI-H226 lung

>  <VALUE MEASURED>
> 42 µM

$$$$
>  <COMPOUND>
CC(=O)CCNc1ccc(-c2cc(-c3ccc(N(C)C)cc3)nc3ccc4ccccc4c23)cc1

>  <ASSAY SYSTEM>
NCI-H226 lung

>  <VALUE MEASURED>
> 78.9 µM

$$$$
>  <COMPOUND>
COC(=O)C1C(O)CCC2CN3CCc4c([nH]c5cccc(OC)c45)C3CC21 (stereo not drawn)

>  <ASSAY SYSTEM>
NCI-H226 lung

>  <VALUE MEASURED>
> 100 µM

$$$$

Which value of TGI has been reported for O=C1CC(CC(O)C(O)C(O)CO)CC(=O)N1 (stereo not drawn) in the records?
> 100 µM

Which value of TGI has been reported for O=C(O)C1NCCc2c1[nH]c1ccccc21 (stereo not drawn) in the records?
> 100 µM

Which value of TGI has been reported for COC(=O)C(C)NP(=O)(OCc1ccc(Cn2cnc3c(=O)[nH]c(N)nc32)cc1)Oc1ccccc1 (stereo not drawn) in the records?
> 100 µM

Which value of TGI has been reported for `Oc1c2cc(Br)cc1CCc1cc(Br)cc(c1O)CC2` in the records?
59.5 µM

Which value of TGI has been reported for COC(=O)C(C(=O)C(=O)Nc1ccccc1C(C)=O)c1nc2ccc(Cl)cc2[nH]c1=O (stereo not drawn) in the records?
> 100 µM

Which value of TGI has been reported for `Cc1cccc(N=Nc2c(C)nn(C(=O)CC(=O)Nc3ccccc3)c2C)c1` in the records?
> 100 µM
